Just for reference, patent US20070128217A1 is where these values come from.

Tested on: antibodies in sera from SARS patients (sera 1a, 1b, 2, 6, 37, 62, London, SARS-yellow, SARS-green)
Assay type: binding, human
readout.label: Binding of serum London to looped/cyclic peptides of protein X2 of SARS-CoV Urbani
// return just the number, without any unit appended

Looking up `TAFQHQNSKKTTKLV` , I found its Binding of serum London to looped/cyclic peptides of protein X2 of SARS-CoV Urbani recorded as 0.2

Query `SSSLTSLLKTHRMCK` yields Binding of serum London to looped/cyclic peptides of protein X2 of SARS-CoV Urbani of 0.1

So for `HRMCKYTQSTALQEL` , the logged Binding of serum London to looped/cyclic peptides of protein X2 of SARS-CoV Urbani turned out to be 1.5

In plain terms, `TVSQIQLSLLKVTAF` has a documented Binding of serum London to looped/cyclic peptides of protein X2 of SARS-CoV Urbani of 1.4

Per the records, this sequence ( `LIQQWIQFMMSRRRL` ) has Binding of serum London to looped/cyclic peptides of protein X2 of SARS-CoV Urbani equal to 0.9

In plain terms, `AISPKFTTSLSLHKL` has a documented Binding of serum London to looped/cyclic peptides of protein X2 of SARS-CoV Urbani of 1.1

sequence `CLCKHKKVSTNLCTH` , Binding of serum London to looped/cyclic peptides of protein X2 of SARS-CoV Urbani observed: 0.2

Form: sequence = `LQELLIQQWIQFMMS` ; Binding of serum London to looped/cyclic peptides of protein X2 of SARS-CoV Urbani = 0.2

###

Test system: antibodies in sera from SARS patients (sera 1a, 1b, 2, 6, 37, 62, London, SARS-yellow, SARS-green)
Type: binding, human
Would you mind telling me the reported Binding of serum 62 to looped/cyclic peptide (PEPSCAN-ELISA) of each entry?
Give the figure by itself; no unit, no explanation.

The reported value for `GMEAQFLYLYALIYF` in terms of Binding of serum 62 to looped/cyclic peptide (PEPSCAN-ELISA) is 0.5

The measured Binding of serum 62 to looped/cyclic peptide (PEPSCAN-ELISA) associated with `MEAQFLYLYALIYFL` reads 0.5

Note to self: Binding of serum 62 to looped/cyclic peptide (PEPSCAN-ELISA) recorded for `RIIMRCWLCWKCKSK` was 0.3

The recorded Binding of serum 62 to looped/cyclic peptide (PEPSCAN-ELISA) for entry `ALYKGFQFICNLLLL` equals 0.4

For this sequence ( `IIMRCWLCWKCKSKN` ), measured Binding of serum 62 to looped/cyclic peptide (PEPSCAN-ELISA) is 0.5

`AVFQSATKIIALNKR` yielded Binding of serum 62 to looped/cyclic peptide (PEPSCAN-ELISA) of 0.6

###

Test system: control sera (pooled serum of ten healthy LUMC hospital workers; commercial negative donor pooled serum from the Dutch bloodbank)
Assay type: binding, human
Set-up: unit not given here
Threshold-based label: Binding of Control serum LUMC to looped peptides under 0.6 gives True, Binding of Control serum LUMC to looped peptides not under 0.6 gives False.

Does `ALTCTSTHFAFACAD` have Binding of Control serum LUMC to looped peptides strictly under 0.6?
False

Does this sequence meet the criterion Binding of Control serum LUMC to looped peptides < 0.6? `TRHTYQLRARSVSPK`
False

Please check: Binding of Control serum LUMC to looped peptides for `KVTAFQHQNSKKTTK` , strictly under 0.6 or not?
True

Please check: Binding of Control serum LUMC to looped peptides for `LKMLHSSSLTSLLKT` , strictly under 0.6 or not?
True

Given `TQVLKTMSLYMAISP` , is recorded Binding of Control serum LUMC to looped peptides strictly lower than 0.6?
False

Please let me know if `ATATIPLQASLPFGW` shows Binding of Control serum LUMC to looped peptides below 0.6.
False

Here's an entry: `VYVYSRVKNLNSSEG` . Is its Binding of Control serum LUMC to looped peptides below 0.6?
False

Take the sequence `FPRGQGVPINTNSGP` and say whether its Binding of Control serum LUMC to looped peptides is less than 0.6.
True

A record lists `CLCKHKKVSTNLCTH` . Is its Binding of Control serum LUMC to looped peptides below 0.6?
True

Confirm or reject: Binding of Control serum LUMC to looped peptides of `NQLESKVSGKGQQQQ` lies strictly below 0.6
False

Below 0.6 on Binding of Control serum LUMC to looped peptides? Entry `LSLHKLLQTLVLKML`
False

Please state whether Binding of Control serum LUMC to looped peptides is below 0.6 for `SSRSSSRSRGNSRNS`
False

Quick check: does `VKPTVYVYSRVKNLN` have Binding of Control serum LUMC to looped peptides under 0.6?
False

Is the reported Binding of Control serum LUMC to looped peptides for `FGGPTDSTDNNQNGG` strictly below 0.6?
True

Field: below-cutoff. Rule: recorded Binding of Control serum LUMC to looped peptides strictly less than 0.6. Subject: `TEVYYQLESTQITTD`
True

For this sequence, is Binding of Control serum LUMC to looped peptides lower than 0.6? `ALYKGFQFICNLLLL`
True

# TODO verify Binding of Control serum LUMC to looped peptides < 0.6 strictly for this sequence: `IYSHLLLVAAGMEAQ`
True

Please state whether Binding of Control serum LUMC to looped peptides is below 0.6 for `YQECVRGTTVLLKEP`
False

Does `FGRRGPEQTQGNFGD` have Binding of Control serum LUMC to looped peptides strictly under 0.6?
True

Determine whether this sequence shows Binding of Control serum LUMC to looped peptides lower than 0.6 (ties excluded): `VANPAMDPIYDEPTT`
True
